Test system: Mammalian orthoreovirus 1
Test: Antiviral activity against Reovirus 1
Assay type: functional, organism-based
Activity calls are given as the source filed them. The calls are words filed in the database; no cut-off is given here.
recorded.endpoint: Activity

| item.smiles | observed.measurement |
| --- | --- |
| Cc1ccc(OCCn2ccc(=O)n(Cc3ccccc3)c2=O)cc1 | inactive |
| O=c1ccn(CCOc2ccccc2)c(=O)n1Cc1ccccc1 | inactive |
| Cc1ccc(OCCn2ccc(=O)n(Cc3ccccc3C)c2=O)cc1 | inactive |
| O=c1ccn(C/C=C/c2ccccc2)c(=O)n1Cc1cc(F)cc(F)c1 | inactive |
| Cc1ccc(OCCn2ccc(=O)n(Cc3c(C)cc(C)cc3C)c2=O)cc1 | inactive |
| Cc1cccc(OCCn2ccc(=O)n(Cc3ccccc3)c2=O)c1 | inactive |
| Cc1ccc(OCCn2ccc(=O)n(CCc3ccccc3)c2=O)cc1 | inactive |
| O=c1ccn(CCOc2ccc3ccccc3c2)c(=O)n1Cc1ccccc1 | inactive |
| Cc1ccccc1OCCn1ccc(=O)n(Cc2ccccc2)c1=O | inactive |
| O=c1ccn(C/C=C/c2ccccc2)c(=O)n1Cc1cc(Cl)cc(Cl)c1 | inactive |
